This listing pairs compounds with measured solubility at 24 h.
Experiment: Thermodynamic solubility (shake-flask)
Assay type: physicochemical
Conditions: aqueous phosphate buffer, 25 °C, pH 7.4, aqueous buffer, thermodynamic from solid, phosphate buffer pH 7.4, 24 hours
Numeric only. Scale: µM

| Compound | Test readout | Units of measure | Number |
| --- | --- | --- | --- |
| C[C@@H]1Cc2c([nH]c3ccccc23)[C@@H](c2c(F)cnc(OCCNCCCF)c2Cl)N1CC(F)(F)CO [Example 111] | solubility at 24 h | µM | 469 |

Q) Query: solubility at 24 h; subject: Cc1ccc(OCCNCCCF)cc1[C@@H]1c2[nH]c3ccccc3c2C[C@@H](C)N1CC(F)(F)F [Example 17]
A) 68

Q) Suppose we examine the compound Cc1cc(OCCNCCCF)cc([C@@H]2c3[nH]c4ccccc4c3C[C@@H](C)N2CC(F)(F)F)c1 [Example 18] ; what solubility at 24 h value has been reported?
A) 27

----------
Biological target: Estrogen Receptor (ERα) in MCF-7 cells (Homo sapiens (Human), UniProt P03372)
Sequence (P03372 whole entry): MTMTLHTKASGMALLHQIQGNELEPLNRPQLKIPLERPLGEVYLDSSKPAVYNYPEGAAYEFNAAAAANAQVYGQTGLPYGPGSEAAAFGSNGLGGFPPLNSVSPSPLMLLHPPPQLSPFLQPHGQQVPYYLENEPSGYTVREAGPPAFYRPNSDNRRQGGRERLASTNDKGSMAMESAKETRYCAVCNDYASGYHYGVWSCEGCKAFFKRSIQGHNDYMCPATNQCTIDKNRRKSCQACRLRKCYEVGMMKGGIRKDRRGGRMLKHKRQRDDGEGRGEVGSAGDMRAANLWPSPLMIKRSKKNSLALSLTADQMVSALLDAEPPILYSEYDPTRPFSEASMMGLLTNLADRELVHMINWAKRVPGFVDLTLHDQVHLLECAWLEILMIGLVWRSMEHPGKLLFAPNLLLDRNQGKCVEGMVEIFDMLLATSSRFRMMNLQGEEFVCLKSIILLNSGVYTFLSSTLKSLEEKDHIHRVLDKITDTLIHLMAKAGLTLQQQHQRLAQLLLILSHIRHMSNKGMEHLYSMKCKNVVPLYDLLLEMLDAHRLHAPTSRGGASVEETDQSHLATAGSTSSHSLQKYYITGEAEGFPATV
Experiment: MCF-7 ER down-regulation assay (immuno-fluorescence)
Some molecules, each annotated with its measured pIC50.
Schema: pIC50 number; meaning minus log10 of the concentration expressed in molar units.

| Record smiles | Test readout | Number |
| --- | --- | --- |
| C[C@@H]1Cc2c([nH]c3ccccc23)[C@@H](c2c(Cl)ccc(OCCNCCCF)c2F)N1CC(F)(F)F | pIC50 | 9.92 |

Now, please, on to the next molecule.
Q) Please give the measured pIC50 for this molecule: Cc1c(OCCN(C)CCCF)ccc(F)c1[C@@H]1c2[nH]c3ccccc3c2C[C@@H](C)N1CCC(=O)O
A) 8.92

----------
In this section, each of the compounds is paired with its reported Human plasma protein binding (% free).
Assay: Human plasma protein binding (equilibrium dialysis)
Assay type: in vitro ADME
Give the quantity in % free, number only.

| Record smiles | Number |
| --- | --- |
| C[C@@H]1Cc2c([nH]c3ccccc23)[C@@H](c2c(F)cnc(OCCNCCCF)c2F)N1CC(F)(F)F | 1 |

Q) // lookup Human plasma protein binding (% free) for C[C@@H]1Cc2c([nH]c3ccc(F)cc23)[C@@H](c2c(F)cnc(OCCN(C)CCCF)c2F)N1CC(F)(F)CO
A) 1.6

Q) // query Human plasma protein binding (% free) value for entry C[C@@H]1Cc2c([nH]c3ccccc23)[C@@H](c2c(F)ccc(OCCNCCCF)c2Cl)N1CC(C)(C)C(=O)O
A) 32

----------
Molecular target: hERG potassium channel (Homo sapiens (Human), UniProt Q12809)
Sequence (Q12809 whole entry): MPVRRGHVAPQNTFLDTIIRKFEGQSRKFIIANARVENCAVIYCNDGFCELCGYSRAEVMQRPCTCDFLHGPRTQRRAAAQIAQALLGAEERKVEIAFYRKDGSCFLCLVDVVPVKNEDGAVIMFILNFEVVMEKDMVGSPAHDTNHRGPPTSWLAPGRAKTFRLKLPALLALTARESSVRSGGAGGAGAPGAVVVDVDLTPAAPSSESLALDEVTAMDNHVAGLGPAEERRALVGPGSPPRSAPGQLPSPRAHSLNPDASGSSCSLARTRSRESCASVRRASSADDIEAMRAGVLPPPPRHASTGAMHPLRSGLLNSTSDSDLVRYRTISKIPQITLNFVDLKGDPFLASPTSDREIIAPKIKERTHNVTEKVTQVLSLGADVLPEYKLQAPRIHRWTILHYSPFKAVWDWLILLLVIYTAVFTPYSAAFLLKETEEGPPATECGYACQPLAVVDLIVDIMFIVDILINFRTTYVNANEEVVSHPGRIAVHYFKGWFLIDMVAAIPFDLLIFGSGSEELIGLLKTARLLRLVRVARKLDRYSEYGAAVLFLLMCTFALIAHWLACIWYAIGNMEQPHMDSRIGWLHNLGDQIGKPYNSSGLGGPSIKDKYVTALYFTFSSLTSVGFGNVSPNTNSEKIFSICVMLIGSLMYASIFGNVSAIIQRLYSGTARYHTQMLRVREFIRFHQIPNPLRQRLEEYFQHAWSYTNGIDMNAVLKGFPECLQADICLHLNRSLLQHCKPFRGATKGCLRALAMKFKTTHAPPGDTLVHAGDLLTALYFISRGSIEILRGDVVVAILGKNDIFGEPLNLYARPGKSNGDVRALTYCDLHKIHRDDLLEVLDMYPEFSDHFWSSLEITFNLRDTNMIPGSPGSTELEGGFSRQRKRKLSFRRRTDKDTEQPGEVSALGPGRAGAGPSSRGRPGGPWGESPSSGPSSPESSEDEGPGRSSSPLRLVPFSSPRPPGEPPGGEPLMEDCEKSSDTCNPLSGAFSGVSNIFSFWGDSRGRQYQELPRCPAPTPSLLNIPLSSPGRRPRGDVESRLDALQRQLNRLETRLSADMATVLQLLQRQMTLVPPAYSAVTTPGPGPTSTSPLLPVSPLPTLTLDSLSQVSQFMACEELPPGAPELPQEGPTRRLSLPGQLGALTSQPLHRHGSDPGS
Test readout: IC50 (µM)
Could you give me the number in µM? Just the number is fine.

Consider the following illustrative entries.
| Record smiles | System | IC50 [µM] |
| --- | --- | --- |
| C[C@@H]1Cc2c([nH]c3ccccc23)[C@@H](c2c(F)ccc(OCCNCCCF)c2F)N1CC(F)F | hERG potassium channel (Homo sapiens (Human), UniProt Q12809) | 4.1 |
| C[C@@H]1Cc2c([nH]c3ccccc23)[C@@H](c2c(F)ccc(OCCNCCCF)c2F)N1CC1(F)COC1 | hERG potassium channel (Homo sapiens (Human), UniProt Q12809) | 2.6 |

For the next question, use this compound.
Q) GET /values?readout=IC50&system=hERG potassium channel (Homo sapiens (Human), UniProt Q12809)&item= C[C@@H]1Cc2c([nH]c3ccccc23)[C@@H](c2cccc(OCCNCCCF)n2)N1CC(F)(F)F
A) 3.4

----------
Below, each entry is listed alongside its reported log10 of IC50.
Target: recombinant human Estrogen Receptor alpha ligand binding domain (ER alpha-LBD (GST)) (Homo sapiens (Human), UniProt P03372)
Assay: ERα binding assay (LanthaScreen TR-FRET competition)
# log10 transformed; quantity=IC50; unit=nM

Q) What value of measured log10 of IC50 is listed for C[C@@H]1Cc2c([nH]c3ccc(F)cc23)[C@@H](c2c(F)ccc(NCCNCCCF)c2F)N1CC(F)(F)CO [Example 89] ?
A) -0.04

Q) GET /values?readout=log10 of IC50&item= C[C@@H]1Cc2c([nH]c3ccccc23)[C@@H](c2c(F)ccc(OCCNCCCF)c2F)N1CC1(F)CC1 [Example 76]
A) 0.00

Q) Please give the measured log10 of IC50 for this molecule: C[C@@H]1Cc2c([nH]c3ccccc23)[C@@H](c2cccc(OCCNCCCF)n2)N1CC(F)(F)F [Example 34]
A) 2.28

Q) Please look up its log10 of IC50: Cc1c(OCCN(C)CCCF)ccc(F)c1[C@@H]1c2[nH]c3ccc(F)cc3c2C[C@@H](C)N1C[C@H](C)C(=O)O [Example 146]
A) 0.04

Q) Look up log10 of IC50 for this molecule: Cc1c([C@@H]2c3[nH]c4ccccc4c3C[C@@H](C)N2CC(F)(F)F)ccnc1OCCNCCCF [Example 106]
A) -0.04

Q) What measured log10 of IC50 goes with C[C@@H]1Cc2c([nH]c3ccccc23)[C@@H](c2nccc(OCCNCCCF)c2F)N1CC1(F)CC1 [Example 99] ?
A) 0.53

Q) Would you kindly share the measured log10 of IC50 for Cc1c([C@@H]2c3[nH]c4ccccc4c3C[C@@H](C)N2C[C@@H](C)C(=O)O)ccnc1OCCN(C)CCCF [Example 161] ?
A) 0.23

Q) Could you tell me which log10 of IC50 is on file for COc1ccc(OC[C@@H](C)NCCCF)cc1[C@@H]1c2[nH]c3ccccc3c2C[C@@H](C)N1CC(F)(F)CO [Example 50] ?
A) 0.00

Q) For the molecule Cc1c(OCCNCCCF)ccc(F)c1[C@@H]1c2[nH]c3ccccc3c2C[C@@H](C(F)F)N1C[C@H](C)C(=O)O [Example 137] , what log10 of IC50 is on record?
A) 0.23

Q) Quick one: log10 of IC50 for COc1c(OCCNCCCF)cccc1[C@@H]1c2[nH]c3ccccc3c2C[C@@H](C)N1CC1(F)COC1 [Example 5] ?
A) 1.65

Q) For the molecule C[C@@H]1Cc2c([nH]c3ccccc23)[C@@H](c2cccc(OCCNCCCF)c2Cl)N1CC(F)(F)F [Example 25] , what log10 of IC50 is on record?
A) -0.06

Q) Field request: log10 of IC50 | item: Cc1c(OCCN(C)CCCF)ncc(F)c1[C@@H]1c2[nH]c3ccc(F)cc3c2C[C@@H](C)N1C[C@@H](C)C(=O)O [Example 155]
A) 0.00

Q) Please look up its log10 of IC50: C[C@@H]1Cc2c([nH]c3ccccc23)[C@@H](c2c(Cl)ccc(OCCNCCCF)c2F)N1CC(F)(F)F [Example 78]
A) 0.11

Q) Which log10 of IC50 is listed for COc1ccc(O[C@@H](C)CNCCCF)cc1[C@@H]1c2[nH]c3ccccc3c2C[C@@H](C)N1CC(F)(F)CO [Example 48] ?
A) 0.64

Q) Item COc1ccc(OCCNCCC(F)(F)F)cc1[C@@H]1c2[nH]c3ccccc3c2C[C@@H](C)N1CC(F)(F)F [Example 72] has what recorded log10 of IC50?
A) 0.15

Q) log10 of IC50 lookup needed for C[C@@H]1Cc2c([nH]c3ccccc23)[C@@H](c2c(F)ccc(OCCNCCCF)c2F)N1CC1(S(C)(=O)=O)CC1 [Example 77] , thanks.
A) 0.86

Q) Can you share its log10 of IC50? I mean this molecule: C[C@@H]1Cc2c([nH]c3cccc(F)c23)[C@@H](c2c(F)ccc(OCCNCCCF)c2F)N1CC(F)(F)CO [Example 62]
A) -0.15

Q) What value of log10 of IC50 has been recorded for this entry: C[C@@H]1Cc2c([nH]c3ccccc23)[C@@H](c2c(F)ccc(OCCN(C)CCCF)c2F)N1C[C@H](C)C(=O)O [Example 144]
A) 0.75

Q) Query (molecule): Cc1c(OCCN(C)CCCF)ccc(F)c1[C@@H]1c2[nH]c3ccccc3c2C[C@@H](C)N1CCC(=O)O [Example 163] ; field requested: log10 of IC50
A) 0.52

Q) Quick one: log10 of IC50 of Cc1c(OCCNCCCF)ccnc1[C@@H]1c2[nH]c3ccccc3c2C[C@@H](C)N1CC(F)(F)CO [Example 96] ?
A) 0.15

Q) I have this molecule here, C[C@@H]1Cc2c([nH]c3ccccc23)[C@@H](c2c(F)ccc(OCCNCCCF)c2F)N1CC1(F)COC1 [Example 13] , and I need its recorded log10 of IC50.
A) 0.20

----------
pIC50 values, listed per item
Biological target: Estrogen Receptor (ERα) in MCF-7 cells (Homo sapiens (Human), UniProt P03372)
Experiment: MCF-7 ER down-regulation assay (immuno-fluorescence)
Reminder that pIC50 is minus the log10 of a molar concentration.

Observe how each entry below is paired with its result.
| Molecule | System | Number |
| --- | --- | --- |
| Cc1c(OCCN(C)CCCF)ncc(F)c1[C@@H]1c2[nH]c3ccccc3c2C[C@@H](C)N1C(C)CC(=O)O (single isomer, unassigned) [Example 158] | Estrogen Receptor (ERα) in MCF-7 cells (Homo sapiens (Human), UniProt P03372) | 9.00 |
| Cc1c(NCCNCCCF)ccc(F)c1[C@@H]1c2[nH]c3ccccc3c2C[C@@H](C)N1C[C@H](C)C(=O)O [Example 135] | Estrogen Receptor (ERα) in MCF-7 cells (Homo sapiens (Human), UniProt P03372) | 7.80 |
| C[C@@H]1Cc2c([nH]c3ccccc23)[C@@H](c2ccnc(OCCNCCCF)c2Cl)N1CC(F)(F)CO [Example 104] | Estrogen Receptor (ERα) in MCF-7 cells (Homo sapiens (Human), UniProt P03372) | 9.77 |

Q) // lookup pIC50 for C[C@@H]1Cc2c([nH]c3ccc(F)cc23)[C@@H](c2c(F)ccc(OCCNCCCF)c2F)N1C[C@H](C)C(=O)O [Example 59]
A) 8.51

Q) What value of pIC50 has been reported for the following molecule? Cc1c(OCCNCCCF)ccc(F)c1[C@@H]1c2[nH]c3ccc(F)cc3c2C[C@@H](C)N1C[C@@H](C)C(=O)O [Example 121]
A) 9.28

These entries and their values trace back to patent US10221173B2.
